assay: Half life in Guinea pig at 2 mg/kg, iv; type: ADME, organism-based, Cavia porcellus; design: dose 2 mg/kg, route intravenous; conditions: in vivo
TEST_READOUT: half-life
Number plus unit, in that order.

Measured half-life of `Cc1cc(S(=O)(=O)N[C@@H](C(=O)NO)C2CCOCC2)ccc1F` : 1.2 h

###

molecular target: Matrix metalloproteinase-9 (Homo sapiens, UniProt P14780)
Sequence (P14780 whole entry): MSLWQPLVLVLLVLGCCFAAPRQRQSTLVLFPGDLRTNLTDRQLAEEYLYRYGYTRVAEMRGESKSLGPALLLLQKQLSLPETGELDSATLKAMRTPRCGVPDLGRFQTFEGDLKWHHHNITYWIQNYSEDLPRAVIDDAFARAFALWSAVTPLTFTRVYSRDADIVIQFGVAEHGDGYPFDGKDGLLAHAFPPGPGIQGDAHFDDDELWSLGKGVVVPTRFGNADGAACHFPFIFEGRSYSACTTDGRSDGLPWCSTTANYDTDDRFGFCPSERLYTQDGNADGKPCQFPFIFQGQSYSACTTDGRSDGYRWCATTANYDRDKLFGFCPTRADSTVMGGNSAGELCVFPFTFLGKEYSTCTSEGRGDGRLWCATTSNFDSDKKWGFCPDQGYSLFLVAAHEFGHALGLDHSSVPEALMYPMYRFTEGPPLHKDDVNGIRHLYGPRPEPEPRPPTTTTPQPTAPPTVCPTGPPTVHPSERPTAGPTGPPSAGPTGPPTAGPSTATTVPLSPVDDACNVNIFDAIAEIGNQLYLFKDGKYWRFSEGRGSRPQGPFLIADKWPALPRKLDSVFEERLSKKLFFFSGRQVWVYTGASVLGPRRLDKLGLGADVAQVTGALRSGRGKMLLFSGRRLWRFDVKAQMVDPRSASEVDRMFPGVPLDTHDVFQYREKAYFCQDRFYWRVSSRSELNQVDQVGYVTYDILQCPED
TEST_READOUT: pIC50
pIC50 field: float, defined as -log10 of concentration (mol/L).

The measured pIC50 associated with `Cc1cc(S(=O)(=O)N[C@@H](C(=O)NO)C2CCOCC2)ccc1F` reads 5.70
